# assay_target: AGTR1 (Homo sapiens, UniProt P30556)
# Construct: host or cells: Pathunter CHO-K1 AGTR1 β-arrestin cell line (CHO-K1)
# Sequence (P30556 1-359): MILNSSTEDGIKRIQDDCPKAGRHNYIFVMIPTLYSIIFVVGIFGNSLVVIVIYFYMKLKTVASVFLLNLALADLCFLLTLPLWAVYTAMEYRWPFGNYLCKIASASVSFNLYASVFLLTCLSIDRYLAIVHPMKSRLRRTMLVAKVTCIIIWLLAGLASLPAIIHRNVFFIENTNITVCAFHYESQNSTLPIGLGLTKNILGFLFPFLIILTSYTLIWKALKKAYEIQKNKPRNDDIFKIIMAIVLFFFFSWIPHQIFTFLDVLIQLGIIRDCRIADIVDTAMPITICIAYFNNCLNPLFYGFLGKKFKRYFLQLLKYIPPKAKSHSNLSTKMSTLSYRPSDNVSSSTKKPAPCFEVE
# experiment: DiscoveRx IP1 accumulation assay (HTRF), agonist mode, Pathunter CHO-K1 AGTR1 β-arrestin cell line
# Format: cell-based
Label 1 when IP-1 Ymax (%) is at or above 20%; anything below gets 0.

>>> category("CCCCC1=NC2(CCCC2)C(=O)N1Cc1ccc(-c2cc(-c3ccsc3)ccc2-c2nn[nH]n2)cc1")
0
>>> category("CCc1nc2c(C)cc(C)nc2n1Cc1ncc(-c2cc(-c3cccc(C)c3)ccc2C(=O)O)cn1")
0
>>> category("CCc1nc2c(C)cc(C)nc2n1Cc1ccc(-c2cc(-c3ccc(CO)cc3)ccc2-c2nn[nH]n2)cc1")
1

API: above_or_equal(metric=IP-1 Ymax (%), cutoff=20%) for item `CCCCOC(=O)NS(=O)(=O)c1sc(-c2ccccc2C(F)(F)F)cc1-c1ccc(Cn2c(CC)nc3c(C)cc(C)nc32)cn1` 0

Please do the same for `CCCn1cc(-c2ccc(-c3nnn[nH]3)c(-c3ccc(Cn4c(CC)nc5c(C)cc(C)nc54)cc3)c2)nn1` as well. 0

Please do the same for `CCc1nc2c(C)cc(C)nc2n1Cc1ccc(-c2cc(-c3cccc(C(F)(F)F)n3)ccc2-c2nn[nH]n2)cc1` as well. 0

Please do the same for `CCc1nc2c(C)cc(C)nc2n1Cc1ccc(-c2cc(-c3cccc(C)c3)ccc2-c2nnn[nH]2)nn1` as well. 1

---

pEC50 values, listed per item
# assay_target: AGTR1 (Homo sapiens)
# Construct: host or cells: Pathunter CHO-K1 AGTR1 β-arrestin cell line (CHO-K1)
# Sequence (P30556 1-359): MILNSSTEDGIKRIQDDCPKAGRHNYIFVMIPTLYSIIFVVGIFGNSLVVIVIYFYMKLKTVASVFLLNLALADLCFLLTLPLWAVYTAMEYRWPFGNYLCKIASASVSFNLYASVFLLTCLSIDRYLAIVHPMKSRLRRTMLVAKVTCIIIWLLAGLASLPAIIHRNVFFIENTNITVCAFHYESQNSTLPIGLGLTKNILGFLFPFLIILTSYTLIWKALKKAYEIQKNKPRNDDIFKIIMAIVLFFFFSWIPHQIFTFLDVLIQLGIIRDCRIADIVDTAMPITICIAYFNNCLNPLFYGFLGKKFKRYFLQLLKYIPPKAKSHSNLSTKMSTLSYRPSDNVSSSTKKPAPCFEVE
# experiment: DiscoveRx β-arrestin2 recruitment assay (enzyme complementation, Pathunter CHO-K1 AGTR1 β-arrestin cell line)
# Assay type: cell-based
# test_context: DiscoveRx β-arrestin2 recruitment
pEC50 (log units): -log10 of the concentration in mol/L.

Examples from the recorded data:
>>> recorded_measurement("CCOc1nc2cccc(C(=O)O)c2n1Cc1ccc(-c2cc(-n3ccc(C(F)(F)F)n3)ccc2-c2nn[nH]n2)cc1 [Example 338]")
7.75
>>> recorded_measurement("CCc1nc2c(C)cc(C)nc2n1Cc1ccc(-c2cc(-c3cnn(C)c3)ccc2-c2nn[nH]n2)cc1 [Example 21]")
7.66
>>> recorded_measurement("CCCCC(=O)N(Cc1ccc(-c2cc(-c3ccc(NC(C)=O)cc3)ccc2-c2nn[nH]n2)cc1)C1(C(=O)O)CCCCC1 [Example 291]")
6.87
>>> recorded_measurement("CCCCC1=NC2(CCOCC2)C(=O)N1Cc1ccc(-c2cc(-c3cccc(C)c3)ccc2-c2nn[nH]n2)cc1 [Example 155]")
7.39
>>> recorded_measurement("CCCCC1=NC2(CCCC2)C(=O)N1Cc1ccc(-c2cc(N3CCC[C@@H](C)C3)ccc2-c2nn[nH]n2)cc1 [Example 106]")
7.75

Next, consider the following compound.
What value of measured pEC50 is listed for CCCCc1ncc(C(=O)NCCO)n1Cc1ccc(-c2cc(-c3ccccc3)ccc2-c2nn[nH]n2)cc1 [Example 348] ? 8.14

---

# assay_target: AGTR1 (Homo sapiens, UniProt P30556)
# Construct: host or cells: Pathunter CHO-K1 AGTR1 β-arrestin cell line (CHO-K1)
# experiment: DiscoveRx IP1 accumulation assay (HTRF), agonist mode, Pathunter CHO-K1 AGTR1 β-arrestin cell line
# Format: cell-based
# test_context: read-out: IP-1 EC50
pEC50: −log10 of the molar value.
Label Y when pEC50 is at or above 7; anything below gets N.

>>> category("CCc1nc2c(C)cc(C)nc2n1Cc1ccc(-c2cc(N3CCCC(C)(C)C3)ccc2-c2nn[nH]n2)cc1 [Example 98]")
"Y"
>>> category("CCCCC1=NC2(CCCC2)C(=O)N1Cc1ccc(-c2cc(-n3ccc4ccc(F)cc43)ccc2-c2nn[nH]n2)cc1 [Example 109]")
"N"
>>> category("CCc1nc2c(C)cc(C)nc2n1Cc1ccc(-c2cc(-c3ccccc3)ccc2C(=O)O)nc1 [Example 201]")
"N"
>>> category("CCc1nc2c(C)cc(C)nc2n1Cc1ccc(-c2cc(-n3nnc4ccccc43)ccc2-c2nnn[nH]2)cc1 [Example 233]")
"Y"
>>> category("CCc1nc2c(C)cc(C)nc2n1Cc1ccc(-c2cc(Oc3cccnc3)ccc2-c2nnn[nH]2)cc1 [Example 257]")
"Y"

API: above_or_equal(metric=pEC50, cutoff=7) for item CCCCC1=NC2(CCOCC2)C(=O)N1Cc1ccc(-c2cc(-c3cc(C)ccn3)ccc2-c2nn[nH]n2)cc1 [Example 171] N

Please do the same for CCCCC1=NC2(CCCC2)C(=O)N1Cc1ccc(-c2cc(-c3ccc(C(=O)NC)cc3)ccc2-c2nn[nH]n2)cc1 [Example 124] as well. N

Please do the same for CCc1nc2c(C)cc(C)nc2n1Cc1ccc(-c2cc(-n3cc(C)nn3)ccc2-c2nnn[nH]2)cc1 [Example 232] as well. Y

Please do the same for CCCCOC(=O)NS(=O)(=O)c1sc(-c2ccccc2C(F)(F)F)cc1-c1ccc(Cn2c(CC)nc3c(C)cc(C)nc32)cn1 [Example 46] as well. N

Please do the same for CCc1nc2c(C)cc(C)nc2n1Cc1ccc(-c2cc(-c3ccc(C(=O)N(C)C)cc3)ccc2C(=O)O)cc1 [Example 185] as well. N

Please do the same for CCCCOC(=O)NS(=O)(=O)c1sc(-c2cccnc2OC)cc1-c1ccc(Cn2c(CC)nc3c(C)cc(C)nc32)cc1 [Example 47] as well. Y

Please do the same for CCc1nc2c(C)cc(C)nc2n1Cc1ccc(-c2cc(-n3cccc3)ccc2-c2nn[nH]n2)cc1 [Example 90] as well. Y

Please do the same for CCc1nc2c(C)cc(C)nc2n1Cc1ccc(-c2cc(-c3cn(Cc4ccccc4)nn3)ccc2-c2nnn[nH]2)cc1 [Example 238] as well. N

Please do the same for CCc1nc2c(C)cc(C)nc2n1Cc1ccc(-c2cc(C3CCCCC3)ccc2-c2nn[nH]n2)cc1 [Example 71] as well. N

Please do the same for CCCCC1=NC2(CCOC2)C(=O)N1Cc1ccc(-c2cc(-c3cccc(C)c3)ccc2-c2nnn[nH]2)cc1 (single isomer, unassigned) [Example 153] as well. N

Please do the same for CCCCC1=NC2(CCCC2)C(=O)N1Cc1ccc(-c2cc(-c3cc(OC)ccn3)ccc2-c2nn[nH]n2)cc1 [Example 141] as well. N

Please do the same for CCCCC1=NC2(CCCC2)C(=O)N1Cc1ccc(-c2cc(-c3cccc(F)c3F)ccc2-c2nn[nH]n2)cc1 [Example 135] as well. N

Please do the same for CCCCC1=NC2(CCCC2)C(=O)N1Cc1ccc(-c2cc(N3CC4(CC4)c4ccccc43)ccc2-c2nn[nH]n2)cc1 [Example 108] as well. N

Please do the same for CCc1nc2c(C)cc(C)nc2n1Cc1ccc(-c2cc(-c3ccsc3)ccc2-c2nn[nH]n2)cc1 [Example 55] as well. Y

Please do the same for CCc1nc2c(C)cc(C)nc2n1Cc1ccc(-c2cc(N3CCC[C@H](C)C3)ccc2-c2nn[nH]n2)cc1 [Example 88] as well. N

Please do the same for CCc1nc2c(C)cc(C)nc2n1Cc1ccc(-c2cc(-c3cccc(C)c3)ccc2-c2nnn[nH]2)nc1 [Example 175] as well. Y

Please do the same for CCCCC1=NC2(CCCC2)C(=O)N1Cc1ccc(-c2cc(-c3ccccc3CO)ccc2-c2nn[nH]n2)cc1 [Example 128] as well. N

Please do the same for CCCCC1=NC2(CCCC2)C(=O)N1Cc1ccc(-c2cc(-c3ccsn3)ccc2-c2nn[nH]n2)cc1 [Example 123] as well. N
